Measured EC50 accompanies every entry in the list below.
assay: Antiproliferative activity against human MIAPaCa2 cells assessed as reduction in cell viability after 72 hrs by MTT assay; type: functional, cell-based; settings: MIA PaCa-2, 72 h
Write the answer as a number in µM, unit excluded.

Solved cases below.
>  <Molecule>
COCCOc1ccc(N2C(=O)N(CC(=O)N/N=C/C=C/c3ccc([N+](=O)[O-])o3)C(C)(C)C2N(O)C(=O)Nc2ccc(Cl)cc2)cc1 (stereo not drawn)

>  <EC50, µM>
6.3

$$$$
>  <Molecule>
COCCOc1ccc(NC(=O)N(O)C2N(c3ccc(OCCOC)cc3)C(=O)N(CC(=O)N/N=C/C=C/c3ccc([N+](=O)[O-])o3)C2(C)C)cc1 (stereo not drawn)

>  <EC50, µM>
38.4

$$$$

Next molecule, EC50 to be filled in.
Look up EC50 for this molecule: COCCOc1ccc(NC(=O)N(O)C2N(c3ccc(Cl)cc3)C(=O)N(CC(=O)N/N=C/C=C/c3ccc([N+](=O)[O-])o3)C2(C)C)cc1 (stereo not drawn)
5.4
